Tested on: KM12 colon
Test: NCI-60 one-dose screen, 48 h (100 = growth as untreated, 0 = no growth, -100 = all killed)
Details: 10 µM unless noted
About 83,000 compounds went through this panel and 20% of them were active in at least one assay; those are over-represented in the sample as a whole.
# growth per entry
measuredEndpoint: growth (%)

smilesString	measuredOn	quantityUnit	numericValue
O=C(c1ccccc1)c1c(/C=C/c2ccccc2)nc2ccccc2c1/C=C/c1ccc(Br)cc1	KM12 colon	%	98.7
O=C1Nc2ccccc2/C1=C/c1cn(C(=O)c2c(Cl)cccc2Cl)c2ccccc12	KM12 colon	%	54.8
Cc1cc(=O)oc2c1ccc1oc(C#N)c(C)c12	KM12 colon	%	104
COc1ccc(/C=C/c2c(C(=O)/C=C/c3cccs3)c(C)nc3ccccc23)cc1	KM12 colon	%	78.9

---

Test system: NCI-H23 lung
Test: NCI-60 one-dose screen, 48 h (100 = growth as untreated, 0 = no growth, -100 = all killed)
Settings: 10 µM unless noted
Compounds without any hit were thinned out: in the full panel of roughly 83,000, 20% have a hit. Activity calls are given as the source filed them. Rule for the calls: active = growth percent below 10; inactive = the rest.

compound	growth
CC(CN1CCCCC1)C(=O)c1ccccc1 (stereo unspecified)	101% (inactive)
COc1ccc(OC)c(-c2c(C#N)c(-c3ccc(Cl)cc3)nc3c2c(-c2ccccc2)nn3-c2ccccc2)c1	102% (inactive)
CC(C)CC(NC(=O)CN(Cc1ccccc1)S(C)(=O)=O)C(=O)O (stereo unspecified)	93.1% (inactive)
COc1ccc(C2CC(c3cccc(OC)c3)=NN2C(=O)c2cc(OC)c(OC)c(OC)c2)cc1 (stereo unspecified)	30.6% (inactive)
NC(=S)Nc1cccc(O)c1	90.6% (inactive)
COc1ccc2oc3c(C)c4c(c(C)c3c2c1)C(=O)N(Cc1ccccc1)C4=O	93.3% (inactive)
COc1ccc2c(c1)C(=O)/C(=C/c1ccc(OCC(=O)Nc3nccs3)cc1)O2	2.06% (active)
COc1cc(N=Nc2ccc(N)cc2)c(OC)cc1N=Nc1ccccc1.[Cl][Zn][Cl]	89% (inactive)
Cc1ccc(NS(=O)(=O)c2ccc3c(c2)C(=O)CC(c2ccc(C(=O)C(C)C)cc2)N3)cc1C (stereo unspecified)	44.1% (inactive)
O=C(c1ccccc1)c1c(/C=C/c2ccc(Cl)cc2)nc2ccccc2c1/C=C/c1cccs1	102% (inactive)
NS(=O)(=O)c1cnccc1Sc1ccncc1S(N)(=O)=O	96.5% (inactive)
CNC(=O)c1cc(Oc2cccc3nc(Nc4ccc(F)c(Cl)c4)ccc23)ccn1	70% (inactive)
NC(N)=Nc1nc2ccccc2n2c1nc1ccccc12	36.3% (inactive)
CS(=O)(=O)c1ccc(Nc2nc(N[C@H]3CCCC[C@H]3N)nc3cc[nH]c(=O)c23)cc1	-5.38% (active)
COc1cc2nc(Cl)nc(Nc3ccc(S(=O)(=O)Nc4nccs4)cc3)c2cc1OC	101% (inactive)
O=C(Nc1ccccc1-c1nc2ccccc2c(=O)[nH]1)c1cc2ccccc2[nH]1	82.4% (inactive)
N=C(N)c1ccc(-c2ccc(-c3cncc4ccccc34)s2)s1	-53.2% (active)
COc1ccc2c(c1)CCCN2c1c2ccccc2nc2ccccc12	15.8% (inactive)
c1ccc(Nc2nc(-c3ccccn3)cs2)nc1	19.1% (inactive)
CC1O[C@@H](OC2[C@H](OC(=O)/C=C/c3ccc(O)c(O)c3)C(COC3O[C@H](C)C(O)C(O)[C@@H]3O)O[C@@H](OCCc3ccc(O)c(O)c3)[C@H]2O)[C@@H](O)C(O)[C@H]1O (stereo partly specified)	101% (inactive)
CSc1n(Cc2ccc3ccccc3c2)c(C)c[n+]1Cc1ccc2ccccc2c1	-50.8% (active)
O=C1CCC2=C3C4CCCCC4C(=O)C4CCCC(OC2C1)C34 (stereo unspecified)	-12.9% (active)
O=C(N/N=C/c1ccncc1)c1ccc(C(F)(F)F)nc1Nc1cccc(C(F)(F)F)c1	21.4% (inactive)
COc1cccc(-c2nn(-c3ccccc3)cc2-c2ccnc(NCCCNC(=O)c3ccccc3)c2)c1	51.3% (inactive)
COc1ccccc1CNCCCN1C(=O)c2ccc3c4c(ccc(c24)C1=O)C(=O)N(CCCNCCCCN)C3=O	-38.6% (active)
Cc1ccc(S(=O)(=O)Oc2cc(OS(=O)(=O)c3ccc(C)cc3)cc(OS(=O)(=O)c3ccc(C)cc3)c2)cc1	98.9% (inactive)
Cc1ccc(/C=C2\C(=O)N(C)c3ccc(S(=O)(=O)Nc4ccc(C(C)(C)C)cc4)cc32)s1	64.1% (inactive)
Cc1ccc2nc(C)c(-c3nnc(SCc4ccc(C#N)cc4)o3)n2c1	85.3% (inactive)
COc1cc(OC)cc(C2CC(=O)Nc3c2c(C)nn3-c2nc3ccccc3[nH]2)c1 (stereo unspecified)	5.52% (active)
O=c1cc(C2NNC(=S)N2)c2ccc3ccccc3c2o1 (stereo unspecified)	91.6% (inactive)
COc1cccc(C(=O)NCCNc2cc(-c3cn(-c4ccccc4)nc3-c3cccc(OC)c3)ccn2)c1	59.7% (inactive)

---

Attribute: growth
Tested on: UACC-257 melanoma
Test: NCI-60 one-dose screen, 48 h (100 = growth as untreated, 0 = no growth, -100 = all killed)
Details: 10 µM unless noted
Compounds without any hit were thinned out: in the full panel of roughly 83,000, 20% have a hit. The source made the active and inactive calls. How the source made its calls: active means growth percent below 10; inactive means the rest.

molecule	growth
CC1(C)OC2C(CO[Si](C)(C)C(C)(C)C)OC(n3c(I)c(C#C[Si](C)(C)C)c(=O)[nH]c3=O)C2O1 (stereo not drawn)	91.3% (inactive)
N=C(N)c1ccc(-c2ccc(-c3cncc4ccccc34)s2)s1	123% (inactive)
CN1CCN(C(=O)c2c3c(n4ccccc24)C(=O)c2ncccc2C3=O)CC1	97.7% (inactive)

---

System: UACC-62 melanoma
Experiment: NCI-60 one-dose screen, 48 h
Settings: 10 µM unless noted
This is part of a sample that, as a whole, favours compounds with a hit. Of some 83,000 tested, about 20% had one in any assay. Active and inactive are the calls of the source. How the source made its calls: active means growth percent below 10; inactive means the rest.
Labels: active, inactive

compound	labelValue
Cc1ccc(S(=O)(=O)Oc2cc(OS(=O)(=O)c3ccc(C)cc3)cc(OS(=O)(=O)c3ccc(C)cc3)c2)cc1	inactive
COc1ccc2c(c1)[nH]c(=O)c1c3cccnc3cn21	inactive
CCCCNC(=O)Oc1ccc2c(=O)c3sc4c(=O)c5ccccc5c(=O)c4c3c(=O)c2c1	active
O=S(=O)(NCCCNc1cc(-c2c(-c3cccc(O)c3)nc3sccn23)ccn1)c1cccc(Cl)c1	inactive
Cc1ccccc1NC(=O)N/C(N)=N/c1nc(C)c(C)s1	inactive
CCCCN(CCCC)CC(C)(C)C(O)c1ccc(OC)c2ccccc12 (configuration not stated)	inactive
COC1=CC(=O)C[C@@H](C)[C@]12Oc1c(Cl)c(OC)cc(OC)c1C2=O	inactive
O=C(CSc1nccc(Nc2ccc(S(=O)(=O)Nc3nccs3)cc2)n1)c1ccc(F)cc1	inactive
CCN1C(=O)N(CC)C2Nn3c(s/c(=C\c4ccc(Cl)cc4Cl)c3=O)=NC21 (configuration not stated)	inactive
COc1ccc(CNC(=O)C(O)C(Cc2ccccc2)NC(=O)c2[nH]c3ccccc3c(=O)c2C)cc1OC (configuration not stated)	inactive
CCc1ccccc1-n1c(-c2ccc(Cl)cc2)cc(-c2ccc(OC)cc2)c(C#N)c1=O	inactive
O=c1[nH][n+](-c2ccc(Cl)cc2)no1	active
O=C1Nc2ccccc2/C1=C/c1cn(C(=O)c2ccc(Cl)cc2)c2ccccc12	inactive
O=c1c2c3c(sc2nc(N/N=C/c2ccc(Br)cc2)n1Cc1ccccc1)CCCC3	inactive
CCN(CC)CCCNc1ccc(Nc2ccc(OC)cc2)cc1	inactive
O=S(=O)(Nc1cccc(Cl)c1)c1ccc(-c2cnc(C3CC3)o2)cc1	inactive
CCN(CC)Cc1cccc(C(=O)OC)c1	inactive
C[n+]1cc2cc(C(N)=O)[nH]c3c(=N)c(Cl)c(N)c1c23	inactive
COc1cc(CCC[P+](c2ccccc2)(c2ccccc2)c2ccccc2)cc2c1OCO2	active
c1ccc(-c2nc([P+](c3ccccc3)(c3ccccc3)c3ccccc3)c(N3CCOCC3)o2)cc1	active
O=C(/C=C/c1c(Cl)nc2sccn12)c1ccc(F)c(F)c1	inactive
Cc1c(Cl)cc(-n2c(=O)c3ccccc3c3ccccc3c2=O)cc1Cl	inactive
CCOC(CN=Cc1cc(C)c2[nH]c3ccccc3c2c1C)OCC	inactive
CS(=O)c1cccc(-c2ccc3nc(N)n(-c4ccc(C(F)(F)F)cc4)c(=O)c3c2)c1 (configuration not stated)	inactive
COC(=O)/C=C1\S/C(=N\NS(=O)(=O)c2ccc(C)cc2)N(c2ccccc2)C1=O	inactive
O=[N+]([O-])c1ccc(N2c3ccncc3Sc3ccncc32)cc1	inactive
O=C(NCCCNc1cc(-c2cn(-c3ccccc3)nc2-c2cccc(O)c2)ccn1)c1ccc(F)cc1	active
CCc1ccccc1-n1c(-c2ccc(Cl)cc2)cc(-c2ccc(Cl)cc2)c(C#N)c1=O	inactive
COc1cccc(-c2nn(-c3ccccc3)cc2-c2ccnc(NCCCNC(=O)c3cccc(C(F)(F)F)c3)c2)c1	inactive
CCSC1=NC2C(N(CC)C(=O)N2CC)N1/N=C/C=C/c1ccccc1[N+](=O)[O-] (configuration not stated)	inactive
CN(c1ccccc1)c1ccc2c(c1)OCCC21CC1Nc1cnccc1C(=O)O (configuration not stated)	inactive
O=C1NC(=Nc2ccc(Cl)cc2)S/C1=C\c1cn(-c2ccccc2)nc1-c1ccccc1	inactive
Cc1ccc(-c2cc(-c3ccccc3C)[nH]c(=O)c2C#N)s1	inactive
Cc1ccc(N2CCN(C(=S)c3cccs3)CC2)cc1	inactive
COc1cc(N2C(=O)c3nccnc3C2=O)cc(OC)c1OC	inactive
Cc1occc1-c1n[nH]c(=S)n1N1C(=O)CSC1=S	inactive
O=c1c2c3c(sc2n2c(-c4cc(-c5ccccc5)nn4-c4ccccc4)nnc2n1Cc1ccccc1)CCCC3	inactive

Sourced from PubChem BioAssay (NCI)
